Target: T1, ScpA_(S512A), active site serine to alanine mutant of recombinant Streptococcal C5a peptidase ScpA, residues … (Streptococcus pyogenes, UniProt P15926 31-1032, S512A)
T1 construct: mimics the form released from the cell surface by SpeB; catalytic residues D130, H193, S512; also called S512A active site mutant of ScpA; source: recombinant, from plasmid pGEX ScpA_((31-1032)) mutated with QuickChange II; purified
T1 sequence: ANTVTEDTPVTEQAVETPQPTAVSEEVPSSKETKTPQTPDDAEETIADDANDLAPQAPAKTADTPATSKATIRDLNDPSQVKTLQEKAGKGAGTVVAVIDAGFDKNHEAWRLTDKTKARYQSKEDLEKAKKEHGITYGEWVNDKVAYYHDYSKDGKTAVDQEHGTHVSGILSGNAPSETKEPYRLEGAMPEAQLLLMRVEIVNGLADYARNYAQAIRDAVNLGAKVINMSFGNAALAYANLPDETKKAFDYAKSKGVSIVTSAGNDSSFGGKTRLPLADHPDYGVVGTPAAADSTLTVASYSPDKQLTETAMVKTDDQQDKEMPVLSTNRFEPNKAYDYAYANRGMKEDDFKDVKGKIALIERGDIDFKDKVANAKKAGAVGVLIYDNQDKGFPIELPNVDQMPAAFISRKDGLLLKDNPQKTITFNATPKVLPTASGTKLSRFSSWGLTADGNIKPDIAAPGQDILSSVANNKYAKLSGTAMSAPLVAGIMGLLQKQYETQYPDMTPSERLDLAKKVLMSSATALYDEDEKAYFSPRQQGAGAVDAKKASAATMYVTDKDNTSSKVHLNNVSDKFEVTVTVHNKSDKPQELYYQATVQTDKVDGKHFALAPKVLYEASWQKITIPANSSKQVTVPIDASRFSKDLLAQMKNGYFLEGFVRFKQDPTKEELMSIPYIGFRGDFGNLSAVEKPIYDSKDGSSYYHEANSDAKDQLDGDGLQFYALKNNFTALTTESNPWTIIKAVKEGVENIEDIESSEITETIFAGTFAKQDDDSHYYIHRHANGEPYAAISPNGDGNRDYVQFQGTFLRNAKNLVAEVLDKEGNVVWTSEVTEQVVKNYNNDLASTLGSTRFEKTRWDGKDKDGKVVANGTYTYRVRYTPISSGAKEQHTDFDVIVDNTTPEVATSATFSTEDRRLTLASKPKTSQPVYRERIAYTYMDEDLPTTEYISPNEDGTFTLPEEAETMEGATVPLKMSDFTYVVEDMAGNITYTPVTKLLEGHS
Assay: SPR; competition in solution: 40 RU HT-rhC5a_(core) immobilised on NTA chip; ScpA_(S512A) (700 nM) pre-incubated with rhC5a-HT (0-2000 nM) 1 hr on ice in SPR running buffer, then injected; Req fitted by the method of Morelock et al. to give KD^Sol
Conditions: both partners purified

binder	Kd
His-tagless form of rhC5a (rhC5a-HT) (natural protein, human, UniProt P01031 678-751, looked up, β-mercaptoethanol added to C27 in the refolding process, numbers count on: the mature C5a (1-74); also called rhC5a-HT(sol); tag-less form rhC5a; source: recombinant rhC5a (pProExHTb) treated with TEV protease (Sigma Merck) to remove the His tag; not shown: His6, N-terminal, cleaved) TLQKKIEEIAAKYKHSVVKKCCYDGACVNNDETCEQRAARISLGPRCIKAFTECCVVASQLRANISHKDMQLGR	11.1 nM
